Biological target: T1, LNX2_2, Q8N448
T1 sequence (Q8N448 334-432, limits assumed, looked up): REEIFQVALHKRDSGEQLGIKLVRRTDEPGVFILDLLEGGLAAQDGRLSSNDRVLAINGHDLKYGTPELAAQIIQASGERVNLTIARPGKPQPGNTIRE
Assay: holdup assay
Set-up: key: below the threshold = too weak to quantify, mostly under pKd 3.1 to 4
Settings: plain residues with an end cap or a label only (N-terminal biotin on a linker: ado-ado)
Readout type: pKd
Kindly provide the number alone.

Request the reported pKd associated with EPAKETTTNV [SLC2A3, P11169]
4.22

Return reported pKd; argument: NISARRFTLC [FAM167B, Q9BTA0]
5.39
